Where these numbers come from: the supplement of paper PMC5579334

Tested on: HS-PSS
Assay: drug sensitivity score (DSS, CellTox-Green cytotoxicity, 72 h) (DSS (dimensionless)); higher = more cytotoxic; extreme values may be limits of the assay
For each entry below, report its drug sensitivity score value.
Format: numeric value only, no unit, no commentary.

Q) Short answer please: drug sensitivity score, HS-PSS, entry CC/C(=C(\c1ccccc1)c1ccc(OCCN(C)C)cc1)c1ccccc1 [Tamoxifen] (max concentration tested 10000 nM)
A) 0

Q) Input Cc1cnc(Nc2ccc(OCCN3CCCC3)cc2)nc1Nc1cccc(S(=O)(=O)NC(C)(C)C)c1 [Fedratinib] (max concentration tested 10000 nM)
A) 3.87

Q) Input COc1cc2nccc(Oc3ccc(NC(=O)C4(C(=O)Nc5ccc(F)cc5)CC4)cc3)c2cc1OC [Cabozantinib] (max concentration tested 1000 nM)
A) 0

Q) Input CCOc1ccn(-c2ccc(F)cc2)c(=O)c1C(=O)Nc1ccc(Oc2ccnc(N)c2Cl)c(F)c1 (max concentration tested 2500 nM)
A) 0

Q) Input Nc1ccccc1NC(=O)c1ccc(CNc2nccc(-c3cccnc3)n2)cc1 [Mocetinostat] (max concentration tested 10000 nM)
A) 4.26

Q) Input C/C=C1\NC(=O)[C@H]2CSSCC/C=C/[C@H](CC(=O)N[C@H](C(C)C)C(=O)N2)OC(=O)[C@H](C(C)C)NC1=O [Romidepsin] (max concentration tested 1000 nM)
A) 3.93

Q) Input NC1(C(=O)N[C@@H](CCO)c2ccc(Cl)cc2)CCN(c2ncnc3[nH]ccc23)CC1 [AZD-5363] (max concentration tested 10000 nM)
A) 0

Q) Input O=C(c1ccc(/C=C/c2n[nH]c3ccccc23)cc1)N1CCNCC1 [KW-2449] (max concentration tested 2500 nM)
A) 0

Q) Input Nc1cc(F)ccc1NC(=O)/C=C/c1cnn(C/C=C/c2ccccc2)c1 [RGFP966] (max concentration tested 10000 nM)
A) 0

Q) Input COc1cc(Br)c(Nc2nc(-c3c(C)nc4ncccn34)cs2)c(Br)c1 [PTC-209] (max concentration tested 10000 nM)
A) 0

Q) Input COc1ccc(S(=O)(=O)Nc2cccnc2Nc2ccc(O)cc2)cc1 [ABT-751] (max concentration tested 10000 nM)
A) 0

Q) Input CON(C)C(=O)N1N=C(c2cc(F)ccc2F)S[C@@]1(CCCN)c1ccccc1 [Filanesib] (max concentration tested 1000 nM)
A) 0

Q) Input O=C(Nc1ccc(OC(F)(F)F)cc1)c1sccc1NCc1ccnc2ccccc12 [OSI-930] (max concentration tested 2500 nM)
A) 0
